- ASSAY_EXPLANATION: Clearance assay: mouse intravenous (IV) clearance
- Format: in vivo
- TEST_CONTEXT: mouse, plasma; female BALB/c mice, single IV dose of 1 mg/kg via the tail vein; read-out: IV Mouse CL
ATTRIBUTE_MEASURED: clearance (mL/min/kg)

Look over these answered cases.
{"MOLECULE": "CC(C)(C#N)CNC1CCN(C(=O)Cn2cc(NC(=O)c3cnn4cccnc34)c(-c3cc(Cl)ccc3OC(F)F)n2)CC1 [Example 466]", "RECORDED_MEASUREMENT": 72}
{"MOLECULE": "CCN1CCN(C(=O)Cn2cc(NC(=O)c3cnn4cccnc34)c(-c3cc(Cl)ccc3OC(F)F)n2)CC1 [Example 233]", "RECORDED_MEASUREMENT": 153}
{"MOLECULE": "N#CC1(CNC2CCN(C(=O)Cn3cc(NC(=O)c4cnn5cccnc45)c(-c4cc(Cl)ccc4OC(F)F)n3)CC2)CC1 [Example 468]", "RECORDED_MEASUREMENT": 140}
{"MOLECULE": "O=C(Nc1cn(CCNCc2ccccc2)nc1-c1cc(Cl)ccc1OC(F)F)c1cnn2cccnc12 [Example 313]", "RECORDED_MEASUREMENT": 51}
{"MOLECULE": "CN(CCC#N)C1CCN(C(=O)Cn2cc(NC(=O)c3cnn4cccnc34)c(-c3cc(Cl)ccc3OC(F)F)n2)CC1 [Example 63]", "RECORDED_MEASUREMENT": 139}
{"MOLECULE": "CSCCN1CCN(C(=O)Cn2cc(NC(=O)c3cnn4cccnc34)c(-c3cc(Cl)ccc3OC(F)F)n2)CC1 [Example 372]", "RECORDED_MEASUREMENT": 93}
{"MOLECULE": "O=C(Nc1cn(CC(=O)N2C[C@H]3CN(CC(F)(F)F)C[C@H]3C2)nc1-c1cc(Cl)ccc1OC(F)F)c1cnn2cccnc12 [Example 59]", "RECORDED_MEASUREMENT": 39}
{"MOLECULE": "CN(CC(C)(F)F)C1CCN(C(=O)Cn2cc(NC(=O)c3cnn4cccnc34)c(-c3cc(Cl)ccc3OC(F)F)n2)CC1 [Example 134]", "RECORDED_MEASUREMENT": 222}

[P] COCCNCCn1cc(NC(=O)c2cnn3cccnc23)c(-c2cc(Cl)ccc2OC(F)F)n1 [Example 294]
[Q] CN(CCc1ccccc1)C1CCN(C(=O)Cn2cc(NC(=O)c3cnn4cccnc34)c(-c3cc(Cl)ccc3OC(F)F)n2)CC1 [Example 85]
[R] CN(C)C1CCN(C(=O)Cn2cc(NC(=O)c3cnn4cccnc34)c(-c3cc(Cl)ccc3OC(F)F)n2)CC1 [Example 67]
[S] CCOC(=O)CN1CCN(C(=O)Cn2cc(NC(=O)c3cnn4cccnc34)c(-c3cc(Cl)ccc3OC(F)F)n2)CC1 [Example 397]
Exercise: Your job: order these 4 records by clearance, ascending. Output spec: labels arranged per the requested ranking.
Key: Q, P, S, R

[A] O=C(Nc1cn(CC(=O)N2CC=CCC2)nc1-c1cc(Cl)ccc1OC(F)F)c1cnn2cccnc12 [Example 284]
[B] CN(CC(F)(F)c1ccccc1)C1CCN(C(=O)Cn2cc(NC(=O)c3cnn4cccnc34)c(-c3cc(Cl)ccc3OC(F)F)n2)CC1 [Example 102]
Exercise: Of A and B , which carries the smaller reported clearance figure? Respond with the label that goes with your answer.
Key: B
(B: 140 mL/min/kg, A: 219 mL/min/kg)

[a] CN(Cc1ccccc1)C1CCN(C(=O)Cn2cc(NC(=O)c3cnn4cccnc34)c(-c3cc(Cl)ccc3OC(F)F)n2)CC1 [Example 98]
[b] Nc1nn2cccnc2c1C(=O)Nc1cn(C2CCNCC2)nc1-c1cc(Cl)ccc1OC(F)F [Example 2]
[c] CN1CCN(c2nc(-c3cc(Cl)ccc3OC(F)F)c(NC(=O)c3cnn4cccnc34)s2)CC1 [Example 205]
[d] CN(CC(F)(F)F)C1CCN(c2nc(-c3cc(Cl)ccc3OC(F)F)c(NC(=O)c3cnn4cccnc34)s2)CC1 [Example 198]
Exercise: Descending sort on clearance required. Output spec: labels arranged per the requested ranking.
Key: b, d, a, c
(b: 580 mL/min/kg, d: 326 mL/min/kg, a: 178 mL/min/kg, c: 46 mL/min/kg)

[A] CN(CC(F)(F)F)C1CCN(C(=O)Cn2cc(NC(=O)c3cnn4cccnc34)c(-c3cc(Cl)ccc3OC(F)F)n2)CC1 [Example 99]
[B] CN(C)CC#Cc1nc(-c2cc(Cl)ccc2OC(F)F)c(NC(=O)c2cnn3cccnc23)s1 [Example 209]
Exercise: Short answer wanted: higher clearance, A or B ? Respond with the label that goes with your answer.
Key: A

[I] CN1C[C@@H]2CN(C(=O)Cn3cc(NC(=O)c4cnn5cccnc45)c(-c4cc(Cl)ccc4OC(F)F)n3)C[C@@H]2C1 [Example 3]
[II] O=C(Nc1cn(CC(=O)N2CCC(O)CC2)nc1-c1cc(Cl)ccc1OC(F)F)c1cnn2cccnc12 [Example 278]
Exercise: Of I and II , which carries the smaller reported clearance figure? Respond with the label that goes with your answer.
Key: II
(II: 133 mL/min/kg, I: 216 mL/min/kg)

These entries and their values trace back to patent US9346815B2.
